# assay.system: Recombinant human TLR2 (RPA663Hu03) (Homo sapiens, UniProt O60603)
# Construct: commercial recombinant protein (Biocom Africa), His-tag labelled with Red-tris-NTA
# Sequence (O60603 21-588 limits assumed): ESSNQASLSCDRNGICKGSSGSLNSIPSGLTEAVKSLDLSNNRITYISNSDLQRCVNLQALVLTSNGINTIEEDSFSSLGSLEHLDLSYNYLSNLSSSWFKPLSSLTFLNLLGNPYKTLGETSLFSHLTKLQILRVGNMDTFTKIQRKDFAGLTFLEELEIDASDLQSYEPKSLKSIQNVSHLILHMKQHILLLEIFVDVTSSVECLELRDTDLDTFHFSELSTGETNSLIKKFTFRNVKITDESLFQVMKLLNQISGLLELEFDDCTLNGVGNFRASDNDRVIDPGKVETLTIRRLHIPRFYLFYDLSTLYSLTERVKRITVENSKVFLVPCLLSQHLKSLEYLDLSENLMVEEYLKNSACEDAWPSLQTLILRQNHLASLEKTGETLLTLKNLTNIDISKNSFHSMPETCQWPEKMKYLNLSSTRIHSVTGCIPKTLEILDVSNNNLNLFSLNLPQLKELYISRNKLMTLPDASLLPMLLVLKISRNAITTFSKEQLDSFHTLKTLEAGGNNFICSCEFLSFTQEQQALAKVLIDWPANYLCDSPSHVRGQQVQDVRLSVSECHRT
# measurement.description: microscale thermophoresis, His-tag-labelled TLR2
# Assay type: binding
assay.metric: Kd (µM)

• NCCCC[C@H](N)C(=O)O [Lys] = 2.78
